Tested on: glycogen synthase kinase-3 (GSK3A per assay name; protocol says GSK3B)
EXPERIMENT: compounds binding glycogen synthase kinase-3 – biochemical, small-molecule microarray, 635 nm fluorescence, GSK3A, primary screen (AID 1103); also: the record names both GSK3A and GSK3B
REPORTED CONDITIONS: fluorescence 635 nm, higher = more signal
READOUT: composite z-score
Please respond with just the number, no unit label.

These solved cases illustrate the format of a correct answer.
>>> readout_number("OCCCc1cc[n+](Cc2cccc(OC(F)(F)F)c2)cc1")
0.873
>>> readout_number("COCCOC(=O)N1C(=O)[C@@]2(c3ccccc31)[C@H](C(=O)N1CCCCCCC1)[C@H]1C(=O)O[C@H](c3ccccc3)[C@H](c3ccccc3)N1[C@@H]2c1ccccc1OCCO")
1.29

Request the reported composite z-score associated with C=CCC(OC(C)=O)[C@@H]1[C@@H](N(Cc2ccc(-c3ccccc3)cc2)C(=O)c2ccc(C)cc2)c2cc(OCCCO)ccc2N1C(=O)c1ccc2ccccc2n1 (some centres not stated)
-0.609
